assay-text: chemical genetic growth profiling, strain panel (AID 1159580);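 also: tested at 20 µM; growth read once vehicle control cultures reached saturation at 30 °C; 1 = growth at the plate median or of vehicle wells; lower values mean less growth of the strain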
measurement-conditions: S. cerevisiae deletion strains, growth OD, locus YHR079C, strain IRE1 (second series)
The campaign covered roughly 5,500 compounds. About 2,000 (36%) were called active. Inconclusive results (about 18%) are left out. Rule as the data show it: active = normalized growth mostly below about 0.91 (no sharp cut-off); inconclusive = no clear call, values can overlap the other calls; inactive = mostly above about 0.92. The list shows a part of the results.
Labels: true = active, false = inactive

compound: N[C@H](Cc1cc(I)c(Oc2ccc(O)c(I)c2)c(I)c1)C(=O)O
assigned-class: false

compound: CCCC(CCC)C(=O)O
assigned-class: false

compound: CCCCSP(=O)(SCCCC)SCCCC
assigned-class: false

compound: COC(=O)c1c(C)cc(OC(=O)c2c(C)cc(O)c(C=O)c2O)c(C)c1O
assigned-class: false

compound: COC(=O)c1c(C)cc(OC(=O)c2c(C)c(Cl)c(O)c(C=O)c2O)c(C)c1O
assigned-class: false

compound: CC(=O)Nc1ccccc1
assigned-class: false

compound: C[C@@H]1O[C@@H](O[C@H]2C[C@@H](O)[C@]3(CO)C4C(CC[C@]3(O)C2)[C@@]2(O)CC[C@H](C3=CC(=O)OC3)[C@@]2(C)C[C@H]4O)[C@H](O)[C@H](O)[C@H]1O (stereo partly specified)
assigned-class: false

compound: O=C(Nc1ccccc1)Nc1ccccc1
assigned-class: false

compound: CN(C)CCC(c1ccc(Br)cc1)c1ccccn1 (stereo unspecified)
assigned-class: false

compound: N[C@@H](Cc1cc(I)c(Oc2cc(I)c(O)c(I)c2)c(I)c1)C(=O)O
assigned-class: true

compound: COc1cc(OC)c2c3c1C(=O)c1c(OC)cc(C)c4c(OC)cc(c-3c14)C(C)(C)C2=O
assigned-class: false

* * *

assay-text: chemical genetic growth profiling, strain panel (AID 1159580);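 also: tested at 20 µM; growth read once vehicle control cultures reached saturation at 30 °C; 1 = growth at the plate median or of vehicle wells; lower values mean less growth of the strain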
measurement-conditions: S. cerevisiae deletion strains, growth OD, locus YCL016C, strain dcc1, active compounds read low
Out of some 5,500 compounds screened, about 2,000 (36%) were called active. Another 18% or so got no clear call; they are omitted. The list shows a part of the results.
Reported values of normalized growth for individual entries
recorded-metric: normalized growth

molecule: CN[C@@H]1[C@H](OC2[C@H](O[C@H]3[C@H](O)[C@@H](O)[C@H](N=C(N)N)[C@@H](O)[C@@H]3N=C(N)N)O[C@@H](C)[C@]2(O)C=O)O[C@@H](CO)[C@H](O)[C@H]1O (stereo partly specified)
recorded-value: 0.98
//
molecule: CN(C)CCOC(=O)C(c1ccccc1)C1(O)CCCC1 (stereo unspecified)
recorded-value: 1.03
//
molecule: O=C(O)CCCOc1ccc(Cl)cc1Cl
recorded-value: 0.958
//
molecule: N#C/C(=C\c1cccc(O)c1)C(=O)O
recorded-value: 0.966
//
molecule: COc1c2ccoc2nc2c(OC)c(OCC(O)C(C)(C)O)ccc12 (stereo unspecified)
recorded-value: 1.02
//
molecule: COc1c2ccccc2nc2occc12
recorded-value: 0.9

* * *

assay-text: chemical genetic growth profiling, strain panel (AID 1159580);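 also: tested at 20 µM; growth read once vehicle control cultures reached saturation at 30 °C; 1 = growth at the plate median or of vehicle wells; lower values mean less growth of the strain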
measurement-conditions: S. cerevisiae deletion strains, growth OD, locus YOR001W, strain rrp6, active compounds read low
Screen size: about 5,500 compounds; about 2,000 (36%) were called active. Roughly 18% stayed inconclusive and do not appear here. Some of the results follow.
recorded-metric: normalized growth

molecule: C=C1[C@H]2CC[C@@]3(C)[C@H](c4ccoc4)OC(=O)C[C@]13O[C@H]1C[C@H](O)C(C)(C)[C@H](CC(=O)OC)[C@]12C
recorded-metric: normalized growth
recorded-value: 1.03

molecule: COc1c2ccoc2nc2c(OC)c(OCC(O)C(C)(C)O)ccc12 (stereo not given)
recorded-metric: normalized growth
recorded-value: 1.02

molecule: C=C1C2CC[C@@]3(C)[C@H](c4ccoc4)OC(=O)C[C@]13O[C@H]1CC(=O)C(C)(C)C(CC(=O)OC)[C@@]21C (stereo not given in full)
recorded-metric: normalized growth
recorded-value: 0.944

molecule: C=C1C2CCC3(C)C(c4ccoc4)OC(=O)CC13OC1CC(OC(C)=O)C(C)(C)C(CC(=O)OC)C12C (stereo not given)
recorded-metric: normalized growth
recorded-value: 1.03

molecule: CC(=O)OCC(=O)[C@@]1(O)[C@H](OC(C)=O)CC2C3CCC4=CC(=O)C=C[C@]4(C)[C@@]3(F)[C@@H](O)C[C@@]21C (stereo not given in full)
recorded-metric: normalized growth
recorded-value: 1

molecule: O=C(O)CCCOc1ccc(Cl)cc1Cl
recorded-metric: normalized growth
recorded-value: 0.953

molecule: CN(C)CCOC(=O)COc1ccc(Cl)cc1
recorded-metric: normalized growth
recorded-value: 0.947

molecule: CN(C)CCOC(=O)C(c1ccccc1)C1(O)CCCC1 (stereo not given)
recorded-metric: normalized growth
recorded-value: 0.97

molecule: COc1c2ccccc2nc2occc12
recorded-metric: normalized growth
recorded-value: 0.89

molecule: NCC(CC(=O)O)c1ccc(Cl)cc1 (stereo not given)
recorded-metric: normalized growth
recorded-value: 0.99
